Tested on: human ether-à-go-go-related gene (hERG) potassium channel (human, UniProt Q12809);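 also: peak tail current of the secondary pulse compared with the same well before compound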
Sequence (Q12809 whole entry, looked up): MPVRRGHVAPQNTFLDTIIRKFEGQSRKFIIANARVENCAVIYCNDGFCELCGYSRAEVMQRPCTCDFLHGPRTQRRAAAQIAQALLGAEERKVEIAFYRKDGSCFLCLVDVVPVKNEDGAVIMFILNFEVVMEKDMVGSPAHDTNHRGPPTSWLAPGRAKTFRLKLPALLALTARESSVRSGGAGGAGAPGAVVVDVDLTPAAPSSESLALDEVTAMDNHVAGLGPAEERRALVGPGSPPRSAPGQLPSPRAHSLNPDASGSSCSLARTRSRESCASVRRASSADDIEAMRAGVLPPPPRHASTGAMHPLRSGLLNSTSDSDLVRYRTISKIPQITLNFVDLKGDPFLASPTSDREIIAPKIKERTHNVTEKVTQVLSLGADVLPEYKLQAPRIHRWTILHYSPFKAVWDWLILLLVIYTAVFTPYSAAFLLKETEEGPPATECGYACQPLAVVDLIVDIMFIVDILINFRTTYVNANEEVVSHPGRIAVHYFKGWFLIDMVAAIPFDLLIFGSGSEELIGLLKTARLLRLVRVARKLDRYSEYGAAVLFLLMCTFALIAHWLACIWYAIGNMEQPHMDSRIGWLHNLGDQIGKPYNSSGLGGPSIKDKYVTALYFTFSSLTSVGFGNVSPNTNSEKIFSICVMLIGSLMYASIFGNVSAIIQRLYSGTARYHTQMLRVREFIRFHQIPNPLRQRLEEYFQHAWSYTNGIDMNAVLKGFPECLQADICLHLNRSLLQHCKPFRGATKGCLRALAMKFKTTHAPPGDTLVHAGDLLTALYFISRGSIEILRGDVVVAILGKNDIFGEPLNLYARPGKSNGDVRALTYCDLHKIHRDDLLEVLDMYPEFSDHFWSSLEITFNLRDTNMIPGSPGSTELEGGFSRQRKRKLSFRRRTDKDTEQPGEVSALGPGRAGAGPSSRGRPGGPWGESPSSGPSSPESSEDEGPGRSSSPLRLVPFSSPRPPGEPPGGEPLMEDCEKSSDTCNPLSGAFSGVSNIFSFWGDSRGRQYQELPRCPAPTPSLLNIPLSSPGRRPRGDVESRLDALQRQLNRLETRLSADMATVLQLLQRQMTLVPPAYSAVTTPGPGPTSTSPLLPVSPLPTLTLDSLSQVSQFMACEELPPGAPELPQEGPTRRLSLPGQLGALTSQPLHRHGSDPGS
Test method notes: primary screen, population patch clamp on CHO cells stably expressing hERG; higher = less effect of the substance
Among all 310,000 compounds or so, about 14,000 (4.5%) showed an effect of 50% or more. The effect is printed as a negative number. This excerpt belongs to a sample that is enriched for strong results.
Hi there, I'd appreciate the recorded hERG current change (%, negative = inhibition) at 10uM for every entry that follows.
Report as: number unit

Hey, can you go through the list below and give me hERG current change (%, negative = inhibition) at 10uM for every item?
1. COc1ccc(C(=O)N2CCN(Cc3ccc4c(c3)OCO4)CC2)cc1[N+](=O)[O-]
2. CCOc1ccc(/C=N/Nc2nc(N3CCCC3)nc(N3CCCC3)n2)cc1OC
3. CCN(CC)S(=O)(=O)c1ccc(OC)c(NC(=O)c2cccc(C)c2[N+](=O)[O-])c1
4. COc1ccc(S(=O)(=O)N2CCOCC2)cc1NC(=O)c1cccc2c(=O)c(C)c(-c3ccccc3)oc12

-44.6%
-12%
-14.5%
-32.9%

Hey, can you go through the list below and give me hERG current change (%, negative = inhibition) at 10uM for every item?
1. COc1cc2c(cc1OC)-c1cc(Nc3ccc(C)cc3)nc(=O)n1CC2
2. O=C(NC1CCCCC1)NC1C2CC3CC(C2)CC1C3 (stereo not drawn)
3. COC(=O)c1cc(S(=O)(=O)NCC2CCN(Cc3cccc(Cl)c3)CC2)c[nH]1
4. O=C(Nc1ccc2c(c1)OCCO2)c1ccc(S(=O)(=O)N2CCCCC2)cc1
5. CC(OC(=O)c1ccc(Cl)c([N+](=O)[O-])c1)C(=O)N1CCN(Cc2ccccc2)CC1 (stereo not drawn)
6. CCN(CC)S(=O)(=O)c1ccc(N2CCOCC2)c(NC(=O)c2cccc3ccccc23)c1

1: -8.97%; 2: -6.14%; 3: -41.9%; 4: 4.38%; 5: -71.1%; 6: 7.99%

Hey, can you go through the list below and give me hERG current change (%, negative = inhibition) at 10uM for every item?
1. CN(C[C@H](Cc1ccccc1)N(C[C@H](Cc1ccccc1)N(CC1(c2ccccc2)CC1)N=O)N=O)N=O.[Na+]
2. COc1cc(-c2cc(C(=O)Nc3ccc(S(N)(=O)=O)cc3)c3ccccc3n2)cc(OC)c1OC
3. COc1cc(N(C)C)c([N+](=O)[O-])cc1C(=O)N1CCN(Cc2ccccc2)CC1
4. Cc1cc(C(=O)N2CCN(Cc3ccccc3)CC2)ccc1[N+](=O)[O-]
5. CCN(CC)S(=O)(=O)c1ccc(NC(=O)c2cc(-c3ccccc3)nc3ccccc23)cc1
6. CCCS(=O)(=O)N1CCN(Cc2ccncc2)CC1.O=C(O)C(=O)O

12.8%
29.2%
9.99%
-32%
1.64%
10.8%

Hey, can you go through the list below and give me hERG current change (%, negative = inhibition) at 10uM for every item?
1. CC(C(=O)N1CCN(Cc2ccccc2)CC1)c1ccc([N+](=O)[O-])cc1 (stereo not drawn)
2. COC(=O)c1cc(S(=O)(=O)NCCc2ccc(Cl)cc2)c[nH]1
3. CCN(CC)S(=O)(=O)c1ccc(N2CCOCC2)c(NC(=O)c2ccccc2F)c1
4. COC(=O)c1cc(S(=O)(=O)NCC2CCN(Cc3cc(C)ccc3C)CC2)c[nH]1
5. O=C1CCC(c2ccc3c(c2)CCC3)=NN1
6. CCOC(=O)c1sc(NC(=O)c2sc(C)nc2C)nc1C
7. O=C(c1ccc(S(=O)(=O)c2ccccc2Cl)c([N+](=O)[O-])c1)N1CCN(Cc2ccccc2)CC1

-43.7%
-3.4%
-15.8%
-11%
17.3%
-4.49%
-25.3%

Hey, can you go through the list below and give me hERG current change (%, negative = inhibition) at 10uM for every item?
1. COc1ccc(N2CCN(C(=O)C34CCC(C)(C(=O)C3)C4(C)C)CC2)cc1 (stereo not drawn)
2. O=C(c1ccc(Oc2ccc([N+](=O)[O-])cc2Cl)cc1)N1CCCC1
3. CCN(CC)S(=O)(=O)c1ccc(O)c(NC(=O)c2cc(-c3cc(OC)c(OC)c(OC)c3)nc3ccccc23)c1
4. CCN(CC)S(=O)(=O)c1ccc(N2CCOCC2)c(NC(=O)c2cccc3c(=O)c(C)c(-c4ccccc4)oc23)c1
5. Cc1noc(C)c1COC(=O)Cc1ccc(Cl)cc1

["-0.453%", "-32.2%", "-59.2%", "-55%", "-5.13%"]

Hey, can you go through the list below and give me hERG current change (%, negative = inhibition) at 10uM for every item?
1. C=CCn1c(NCCc2ccccc2)nc2c1c(=O)n(C)c(=O)n2C
2. CCN(CC)S(=O)(=O)c1ccc(OC)c(NC(=O)c2ccc(OC)c([N+](=O)[O-])c2)c1
3. COc1ccc(C(=O)N2CCN(Cc3ccccc3)CC2)cc1[N+](=O)[O-]
4. CCN(CC)S(=O)(=O)c1ccc(OC)c(NC(=O)c2cccc([N+](=O)[O-])c2C)c1
5. CS(=O)(=O)N1CCN(Cc2ccc([N+](=O)[O-])cc2)CC1
6. COC(=O)c1cc(S(=O)(=O)NCC2CCN(Cc3ccc(Cl)cc3)CC2)c[nH]1
7. CCN(CC)S(=O)(=O)c1ccc(N2CCOCC2)c(NC(=O)Cc2cccc3ccccc23)c1

-1.17%
-24.4%
-52%
-63.8%
-23.6%
-71.2%
-1.03%

Quick check: hERG current change (%, negative = inhibition) at 10uM of COCc1c(C(=O)OCC(=O)NCCc2ccc(S(N)(=O)=O)cc2)oc2ccccc12 ? -0.489%

---

Tested on: human ether-à-go-go-related gene (hERG) potassium channel (human, UniProt Q12809);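 also: peak tail current of the secondary pulse compared with the same well before compound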
Test method notes: primary screen, population patch clamp on CHO cells stably expressing hERG; higher = less effect of the substance
Among all 310,000 compounds or so, about 14,000 (4.5%) showed an effect of 50% or more. Effects have a minus sign here. For the sample, strong results were picked, then their nearest neighbours and some compounds at random.
Readout kind: hERG current change (%, negative = inhibition) at 10uM (%)
One number for each entry, in %.

Use these answered entries as a reference point.
{"Compound": "CCN(CC)CCn1c(SCC(=O)NCc2ccco2)nc2c(sc3ccccc32)c1=O", "Readout number": -68.2}
{"Compound": "O=C(CSc1nc2c(sc3ccccc32)c(=O)n1CCO)NCC1CCCO1 (stereo not drawn)", "Readout number": -3.42}
{"Compound": "CC(=O)COC(=O)C1CCN(S(=O)(=O)c2cc([N+](=O)[O-])ccc2Cl)CC1", "Readout number": -51.8}
{"Compound": "O=C(CSc1nc2c(sc3ccccc32)c(=O)n1CCCN1CCCC1)NCc1ccco1", "Readout number": -73}

Hey, can you go through the list below and give me hERG current change (%, negative = inhibition) at 10uM for every item?
1. Cn1cccc1Cc1nnc(SCC(=O)Nc2cccc(F)c2)n1CCc1ccccc1
2. O=C(COC(=O)C1CCCC1)Nc1ncc(Cl)cc1Cl
3. CN(Cc1ccccc1)C(=O)C1CCN(S(=O)(=O)c2cc([N+](=O)[O-])ccc2Cl)CC1

1: -20.3; 2: 5.91; 3: -54.6

---

Tested on: human ether-à-go-go-related gene (hERG) potassium channel (human, UniProt Q12809);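 also: peak tail current of the secondary pulse compared with the same well before compound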
Test method notes: primary screen, population patch clamp on CHO cells stably expressing hERG; higher = less effect of the substance
About 14,000 (4.5%) of roughly 310,000 compounds showed an effect of 50% or more. Effects have a minus sign here. Only a selection was taken, and strong results are over-represented in it overall.
Readout kind: hERG current change (%, negative = inhibition) at 10uM (%)
Answers are plain numbers, in %.

{"Molecule": "CCCCNC(=O)NS(=O)(=O)c1ccc(NC(=O)CCC(=O)c2cccs2)cc1", "Tested on": "human ether-à-go-go-related gene (hERG) potassium channel (human, UniProt Q12809)", "Readout number": 23.1}
{"Molecule": "CCOC(=O)CC(=O)CSc1nc2nc(C)cc(C)n2n1", "Tested on": "human ether-à-go-go-related gene (hERG) potassium channel (human, UniProt Q12809)", "Readout number": 8.34}
{"Molecule": "CN(C)c1nc(NCc2ccccc2)nc(SCC(N)=O)n1", "Tested on": "human ether-à-go-go-related gene (hERG) potassium channel (human, UniProt Q12809)", "Readout number": 7.76}
{"Molecule": "C=CCOc1c(CNc2ccc(S(N)(=O)=O)cc2)cccc1OC", "Tested on": "human ether-à-go-go-related gene (hERG) potassium channel (human, UniProt Q12809)", "Readout number": 2.97}
{"Molecule": "O=C(c1ccco1)N1CCN(c2nc(C3CC3)nc3sc4c(c23)CCCC4)CC1", "Tested on": "human ether-à-go-go-related gene (hERG) potassium channel (human, UniProt Q12809)", "Readout number": -29.7}

Hey, can you go through the list below and give me hERG current change (%, negative = inhibition) at 10uM for every item?
1. COc1cc(CNCc2ccccn2)ccc1OCC(=O)NC1CCCCC1.Cl
2. COc1cc(CNCc2ccccn2)ccc1OCc1ccccc1Cl.Cl
3. CCOc1cc(NS(=O)(=O)c2ccc(NC(C)=O)cc2)c(OCC)cc1NC(=O)C(C)C
4. CCOC(=O)C1CCCN(C(=O)CCC(=O)Nc2ccc3nc(N4CCOCC4)cc(C)c3c2)C1 (stereo not drawn)
5. CC(NCc1ccco1)C(=O)N1CCc2ccccc2C1.Cl (stereo not drawn)
6. C/C(N)=C(/C#N)C(=O)COC(=O)CC1CCCC1
7. Cc1nnc(NC(=O)c2cccc(F)c2)s1

[-14.5, -58.3, 10.3, -23.7, 14, -2.15, 4.08]

Hey, can you go through the list below and give me hERG current change (%, negative = inhibition) at 10uM for every item?
1. c1ccc2c(c1)nnn2-c1ncnc2sc3c(c12)CCCC3
2. Cc1ccc(Cl)c(OCC(=O)NCc2ccco2)c1
3. CCOc1cc(CNCc2ccccn2)cc(Cl)c1OCC.Cl
4. Cc1ccnc(NC(c2cccnc2)c2ccc3cccnc3c2O)c1 (stereo not drawn)
5. FC(F)(F)Oc1ccc(NC2=NCCCS2)cc1
6. CCCCN(CCCC)c1cc(C)nc(-c2ccccc2O)n1
7. Cc1nc(N2CCN(C(=O)c3ccco3)CC2)c(C#N)c2c1CCCC2

1: -12.2; 2: 1.03; 3: -0.796; 4: -22.5; 5: -24.4; 6: 16.8; 7: 3.21

Hey, can you go through the list below and give me hERG current change (%, negative = inhibition) at 10uM for every item?
1. COc1cc(/C=C2/C(=N)N3C=CSC3=NC2=O)ccc1OCCCOc1cc(C)ccc1C
2. Cc1nc(-n2nnc3ccccc32)c2c3c(sc2n1)CCCC3

1. 2.54
2. -50.1
